# Tested on: SNB-19
# ASSAY_EXPLANATION: NCI tumour cell line growth inhibition, 48 h
Active and inactive are the calls of the source. Cut-off read from the data, not from the text of the source: active = GI50 up to about 1.1 µM and inactive = higher.
Write down one outcome, taken from 1 (active), 0 (inactive)

The examples below pair each entry with its known result.
[[record]]
compound = "CSc1nc(NC(C)C)c2c(n1)Sc1nc3ccccc3n1N=C2"
label_value = 0

[[record]]
compound = "Cc1c(C)n(COCCO)c2ncnc(N)c12"
label_value = 0

[[record]]
compound = "O=S1(=O)NN=C(NCc2ccc(Cl)cc2)c2ccccc21"
label_value = 0

[[record]]
compound = "Cc1cc(=O)nc(S(=O)(=O)NC(=O)Nc2cccc(Cl)c2)[nH]1"
label_value = 0

[[record]]
compound = "O=C(NCCN1C(=O)CN=C(c2ccc(Cl)cc2)c2cc(Cl)ccc21)OCc1ccccc1"
label_value = 0


Query: recorded result category for S=C1CC(c2ccccc2)Sc2ccccc2N1 (stereo not drawn) in this test 0

Lab log entry: NC(=O)[N+](=CC(=S)Nc1ccccc1Cl)C(N)=O — outcome as called in the assay? 0

Hello, I am checking results. What call was entered for CCOP(=O)(C[S+](C)[O-])O[C@@H]1C[C@H](C)CC[C@H]1C(C)C (stereo partly drawn) ? 0

Lab log entry: CC1(CCC(=O)OC2CCCCC2)OCCO1 — outcome as called in the assay? 0

Which outcome was assigned to COc1ccc(C(=O)N(C(=S)OCCOc2ccccc2)c2ccccc2)cc1 in this test? 0

Test call for this compound, please: c1ccc(/N=c2\snc3scc(-c4ccccc4)n23)cc1 0

Outcome logged for O=C(/C=C/c1ccccc1)c1cc(Br)ccc1O in this assay: 0

Would you mind telling me which call this test gave NC1C/C(=N\O)c2c(I)sc(I)c21 (stereo not drawn) ? 0
